System: grass carp pituitary cells
assay_details: Receptor antagonist / pathway inhibitor co-treatment on HK2-induced mRNA expression in grass carp pituitary cells
Assay type: cell-based, grass carp (Ctenopharyngodon idellus)
experimental_parameters: inhibitor 10 μM with HK2 1 μM, 24 h co-treatment
measured_quantity: effect on HK2-induced NMB1 mRNA expression

Please review the entries below; each comes with its answer.
compound="Cl.c1ccc(C2CCCC2NC2=NCCCCCCCCCCC2)cc1 (stereo not drawn) [MDL12330A]" measurement=abolished
compound="CN(C)CCCn1cc(C2=C(c3c[nH]c4ccccc34)C(=O)NC2=O)c2ccccc21 [GF109203X]" measurement="effective in blocking"
compound=COc1ccc2c(c1)CC[C@@H]1[C@@H]2CC[C@]2(C)[C@@H](NCCCCCCN3C(=O)C=CC3=O)CC[C@@H]12 measurement="effective in blocking"
compound=O=S(=O)(NCCNC/C=C/c1ccc(Br)cc1)c1cccc2cnccc12 measurement=abolished

For `NCCOB(c1ccccc1)c1ccccc1` the compound record lists effect on HK2-induced NMB1 mRNA expression as effective in blocking
